Below: a set of entries, each annotated with reported pIC50.
tgt: Tyrosine-protein kinase JAK1 (Homo sapiens, UniProt P23458)
Sequence (P23458 whole entry): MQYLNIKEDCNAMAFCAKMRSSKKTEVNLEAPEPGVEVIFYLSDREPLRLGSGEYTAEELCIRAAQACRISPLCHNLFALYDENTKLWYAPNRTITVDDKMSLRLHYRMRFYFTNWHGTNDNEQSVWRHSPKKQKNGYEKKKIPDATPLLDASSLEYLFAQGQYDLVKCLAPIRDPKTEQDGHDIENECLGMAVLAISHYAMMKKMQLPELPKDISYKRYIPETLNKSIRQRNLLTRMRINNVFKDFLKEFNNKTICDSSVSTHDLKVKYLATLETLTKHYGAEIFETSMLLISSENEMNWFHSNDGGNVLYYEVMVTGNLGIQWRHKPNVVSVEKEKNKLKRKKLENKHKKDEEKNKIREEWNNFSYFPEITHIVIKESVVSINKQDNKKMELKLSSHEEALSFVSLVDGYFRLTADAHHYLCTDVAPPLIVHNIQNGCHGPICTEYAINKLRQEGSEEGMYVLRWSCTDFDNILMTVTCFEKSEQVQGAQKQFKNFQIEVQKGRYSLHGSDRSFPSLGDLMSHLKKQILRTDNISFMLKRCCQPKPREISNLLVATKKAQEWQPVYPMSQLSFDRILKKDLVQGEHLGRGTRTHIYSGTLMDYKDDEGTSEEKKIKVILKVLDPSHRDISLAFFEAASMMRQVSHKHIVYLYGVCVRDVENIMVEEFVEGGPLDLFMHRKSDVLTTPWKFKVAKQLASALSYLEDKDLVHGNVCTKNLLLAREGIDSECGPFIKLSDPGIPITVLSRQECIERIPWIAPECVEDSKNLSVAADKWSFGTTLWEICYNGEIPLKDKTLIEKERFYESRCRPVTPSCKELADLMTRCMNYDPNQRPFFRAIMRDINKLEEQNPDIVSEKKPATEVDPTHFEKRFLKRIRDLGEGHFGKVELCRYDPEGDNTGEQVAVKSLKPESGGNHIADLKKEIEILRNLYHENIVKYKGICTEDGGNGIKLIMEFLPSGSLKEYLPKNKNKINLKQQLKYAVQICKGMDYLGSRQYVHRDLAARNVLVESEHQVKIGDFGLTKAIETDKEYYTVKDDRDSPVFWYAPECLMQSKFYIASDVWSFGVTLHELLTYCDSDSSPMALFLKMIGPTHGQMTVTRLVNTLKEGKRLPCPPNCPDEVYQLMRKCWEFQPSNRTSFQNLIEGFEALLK
protocol_text: Inhibition of recombinant human JAK1 using MGEEPLYWSFPAKKK as substrate incubated for 40 mins in presence of Mg/ATP mixture by [gamma p33]-ATP based scintillation counting method
pIC50: −log10 of the molar value.

molecule | tgt | pIC50
O=C(Nc1nc2cccc([C@@H]3CCC4(CCN(C(=O)[C@@H]5CC5(F)F)CC4)C3)n2n1)C1CC1 | Tyrosine-protein kinase JAK1 (Homo sapiens, UniProt P23458) | 6.42
O=C(Nc1nc2cccc(C3=CC[C@H](NC(=O)[C@@H]4CC4(F)F)CC3)n2n1)C1CC1 | Tyrosine-protein kinase JAK1 (Homo sapiens, UniProt P23458) | 7.92
N#CCN1CC2(CCC(c3cccc4nc(NC(=O)C5CC5)nn34)CC2)C1 | Tyrosine-protein kinase JAK1 (Homo sapiens, UniProt P23458) | 6.94
N#CCC(=O)N1CCC2(CCC(c3cccc4nc(NC(=O)C5CC5)nn34)CC2)CC1 | Tyrosine-protein kinase JAK1 (Homo sapiens, UniProt P23458) | 7.70
O=C(Nc1nc2cccc(C3CCC4(CC3)CCN(C(=O)[C@@H]3CC3(F)F)C4)n2n1)C1CC1 (some centres undefined) | Tyrosine-protein kinase JAK1 (Homo sapiens, UniProt P23458) | 7.51
O=C(Nc1nc2cccc([C@H]3CC[C@@H](NC(=O)[C@H]4CC4(F)F)CC3)n2n1)C1CC1 | Tyrosine-protein kinase JAK1 (Homo sapiens, UniProt P23458) | 7.32
O=C(Nc1nc2cccc(C3CCC4(CC3)CCN(C(=O)CC(F)(F)F)CC4)n2n1)C1CC1 | Tyrosine-protein kinase JAK1 (Homo sapiens, UniProt P23458) | 7.27
O=C(Nc1nc2cccc(C3CCC4(CC3)CCN(C(=O)[C@H]3CC3(F)F)C4)n2n1)C1CC1 (some centres undefined) | Tyrosine-protein kinase JAK1 (Homo sapiens, UniProt P23458) | 7.12
N#CC1(C(=O)N2CC3(CCC(c4cccc5nc(NC(=O)C6CC6)nn45)CC3)C2)CC1 | Tyrosine-protein kinase JAK1 (Homo sapiens, UniProt P23458) | 7.82
